Taken from patent US9249145B2.

- measured.target: human JAK1 (a.a. 837-1142) (Homo sapiens)
- Construct: The catalytic domains of human JAK1 (a.a. 837-1142); His tag (N); made in house; host or cells: insect cells (baculovirus)
- Sequence (P23458 849-1154): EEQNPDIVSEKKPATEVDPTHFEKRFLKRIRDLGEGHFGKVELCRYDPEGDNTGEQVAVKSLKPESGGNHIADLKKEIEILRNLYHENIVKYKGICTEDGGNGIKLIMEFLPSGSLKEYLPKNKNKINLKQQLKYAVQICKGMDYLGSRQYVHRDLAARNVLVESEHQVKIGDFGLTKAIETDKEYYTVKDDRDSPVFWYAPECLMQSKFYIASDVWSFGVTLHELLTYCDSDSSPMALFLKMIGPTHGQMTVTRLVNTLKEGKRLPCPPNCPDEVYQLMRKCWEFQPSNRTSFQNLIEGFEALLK
- experiment.description: In vitro JAK kinase assay (HTRF, phosphorylation of biotinylated peptide), JAK1
- Assay type: biochemical
- measurement.context: 1 mM ATP; Examples 12-91; read-out: JAK1 IC50 (nM) @ 1 mM ATP
Counter-ions that a name gives are not always drawn.
measurement.label: IC50

Value of IC50 reported for the compound Cc1ccc(S(=O)(=O)N2CCN(CC(CC#N)n3cc(-c4ncnc5[nH]ccc45)cn3)CC2)nc1 (stereo not drawn) is < 10 nM

Value of IC50 reported for the compound N#CCC(CN1CCN(C(=O)c2c(F)cc(C#N)cc2F)CC1)n1ccc(-c2ncnc3[nH]ccc23)c1 (stereo not drawn) [Example 79, trifluoroacetate salt] is < 10 nM

Value of IC50 reported for the compound N#CCC(CN1CCN(C(=O)c2ccc(C(F)(F)F)cc2F)CC1)n1cc(-c2ncnc3[nH]ccc23)cn1 (stereo not drawn) [Example 45, trifluoroacetate salt] is < 10 nM
